Reference source for all entries: PubChem BioAssay (NCI)

System: HL-60(TB) leukemia
test.details: NCI tumour cell line growth inhibition, 48 h
property: TGI

Worked set:
COc1ccc2c(c1)N=C1CSC(c3cc([N+](=O)[O-])ccc3Cl)N1C2 (stereo not drawn) ... 55.7 µM
Cn1c2ccccc2c(=NNc2ccccc2C(=O)O)c2ccccc21 ... 44.5 µM
COc1ccc(/C=C/c2n[nH]c3ccc(N4CCOC4=O)cc23)cc1 ... 4.04 µM
O=c1cnn2c(n1)sc1ccc3ccccc3c12 ... > 100 µM
COc1cc(-n2cc(-c3ccc(Cl)cc3)[nH]c2=O)cc(OC)c1OC ... > 100 µM
COC1=CC(c2ccc[nH]2)=N/C1=C\c1ccc[nH]1 ... 3.39 µM
CC(C)=CC(=O)Cc1nc2cc(C)c(C)cc2[nH]c1=O ... > 100 µM
O=C(CCc1cccc(O)c1)NCCc1ccc(O)cc1 ... > 100 µM

## Input Query (molecule): O=C1C=C(NCCc2cc(Br)c(O)c(Br)c2)C(=O)c2ncccc21 ; field requested: TGI
## Output 16.1 µM

## Input What do we get for CCN(CC)CCCNc1nc2ccccc2c2[nH]c3ccc(OC)cc3c12 ?
## Output 3.02 µM

## Input What do we get for CCOC(=O)c1cn(Cc2ccccc2)c(=O)n1Cc1ccccc1 ?
## Output > 100 µM

## Input What do we get for O=c1oc2ccc3ccccc3c2cc1-c1nc2ccccc2o1 ?
## Output > 100 µM

## Input What do we get for Cc1cc(C)c2c(=O)n(CN3CCC(O)(c4ccccc4)CC3)sc2n1 ?
## Output 62.3 µM

###

Tested on: MCF7 breast
test.details: NCI tumour cell line growth inhibition, 48 h; in the data active = GI50 below about 0.43 µM; inactive = the rest
Give one outcome, nothing more. List: active, inactive

Worked cases, answers included:
COc1cc(/C=C2\COc3ccc(O)c(O)c3C2=O)cc(OC)c1 ... inactive
COc1ccc(/C=C/c2n[nH]c3ccc(N4CCOC4=O)cc23)cc1 ... inactive
COc1ccc(C2=NN(C(C)=O)C(c3cn(-c4ccccc4)nc3-c3ccc(Cl)cc3)C2)cc1 (stereo not given) ... inactive
COC1=CC(c2ccc[nH]2)=N/C1=C\c1ccc[nH]1 ... active
CCOC(=O)c1sc(Nc2ccc(Cl)cc2)nc1C ... inactive
COc1cc(-c2cc(-c3nc4ccc(Cl)cc4[nH]3)[nH]n2)cc(OC)c1OC ... inactive

## Input Which outcome was entered for the compound CCC(C)C(NC(=O)C1CCCN1C(=O)C(NC(=O)C(C)N)C(C)C)C(N)=O (stereo not given) in this test?
## Output inactive

## Input What do we get for NS(=O)(=O)c1ccc(CCN=C=S)cc1 ?
## Output inactive

## Input What do we get for Cc1ccc(C)c(-c2csc(Nc3ccc(C)c(C)c3)n2)c1 ?
## Output inactive

## Input What do we get for NCCC(O)(P(=O)(O)O)P(=O)(O)O ?
## Output inactive

###

Test system: K-562 leukemia
test.details: NCI tumour cell line growth inhibition, 48 h
property: GI50

Worked set:
CSc1nc2sc3cc(Cl)ccc3n2c(=N)c1C#N ... > 52.4 µM
COc1cc(C(=O)c2cc3c(cc2C)OCO3)cc(OC)c1OC ... 0.051 µM
Cc1nc(NC(=O)CCCN2C(=O)c3cccc4cccc(c34)C2=O)sc1C(=O)Nc1cc(C(=O)NCCCN(C)C)n(C)c1 ... > 100 µM

## Input Query (molecule): Cn1cc(C2=C(c3cn(CCN)c4ccccc34)C(=O)NC2=O)c2ccccc21 ; field requested: GI50
## Output 8.4 µM

## Input What do we get for COc1ccc(/C=C/c2n[nH]c3ccc(N4CCOC4=O)cc23)cc1 ?
## Output 2.54 µM

###

Tested on: UACC-257 melanoma
test.details: NCI tumour cell line growth inhibition, 48 h; in the data active = GI50 below about 0.43 µM; inactive = the rest
Give one outcome, nothing more. List: t for active, f for inactive

CCC(=C/[C@H](C)C/C=C/C(C)=C/[C@@H](C)C(=O)[C@@H](C)[C@H](O)[C@@H](C)CC)/C=C/[C@H]1OC(=O)C=C[C@H]1C ... t

## Input Which outcome was entered for the compound C=C(C)[C@@H]1CC[C@]2(C)[C@H](CC[C@@H]3[C@H]4[C@H]5OC[C@@]4(CCC5(C)C)CC[C@]32C)[C@@]1(C)CCCN in this test?
## Output f

## Input What do we get for COc1cc(-c2cc(-c3nc4ccc(Cl)cc4[nH]3)[nH]n2)cc(OC)c1OC ?
## Output f

## Input What do we get for N#Cc1ccnc(N2C(=O)CC[C@H]2C(=O)N(c2cncc(F)c2)[C@H](C(=O)NC2CC(F)(F)C2)c2ccccc2Cl)c1 ?
## Output f

###

Test system: SN12C renal
test.details: NCI tumour cell line growth inhibition, 48 h; in the data active = GI50 below about 0.43 µM; inactive = the rest
Give one outcome, nothing more. List: active, inactive

Worked cases, answers included:
COC(=O)CCC/C=C\C[C@H]1C=CC(=O)/C1=C/C[C@@H](O)C/C=C\CC(F)(F)F ... inactive
COc1ccc(-c2nc(-c3nc4ccc(OC)cc4[nH]3)cc3c2[nH]c2ccccc23)cc1 ... inactive
COc1cc(-c2cc(-c3nc4ccc(Cl)cc4[nH]3)[nH]n2)cc(OC)c1OC ... inactive
CSc1nc2sc3cc(Cl)ccc3n2c(=N)c1C#N ... inactive
C[C@@H]1C=C2C(=O)O[C@@H]3CC[C@H](C1)[C@]23O ... inactive
N#Cc1ccnc(N2C(=O)CC[C@H]2C(=O)N(c2cncc(F)c2)[C@H](C(=O)NC2CC(F)(F)C2)c2ccccc2Cl)c1 ... inactive

## Input Which outcome was entered for the molecule NCCC(O)(P(=O)(O)O)P(=O)(O)O in this test?
## Output inactive

## Input What do we get for Nc1c(C(=O)Nc2ccccc2Cl)sc2nc3c(cc12)CCCCCC3 ?
## Output inactive

## Input What do we get for C=C(C)[C@@H]1CC[C@]2(C)[C@H](CC[C@@H]3[C@H]4[C@H]5OC[C@@]4(CCC5(C)C)CC[C@]32C)[C@@]1(C)CCCN ?
## Output inactive

## Input What do we get for COc1cc(C(=O)c2cc3c(cc2C)OCO3)cc(OC)c1OC ?
## Output active

## Input What do we get for N.N.NCCCCN.O=C([O-])C1(C(=O)[O-])CCC1.O=C([O-])C1(C(=O)[O-])CCC1.[Pt+4].[Pt+4] ?
## Output inactive

## Input What do we get for CCOC(=O)c1c(C(F)(F)F)n([O-])c2ccc(OC)cc2[n+]1=O ?
## Output inactive

## Input What do we get for Cc1ccc(C)c(-c2csc(Nc3ccc(C)c(C)c3)n2)c1 ?
## Output inactive

## Input What do we get for Cc1ccc(S(=O)(=O)N2CCc3ccc(O)c4c3C2Cc2cc(Cl)ccc2-4)cc1 (stereo not given) ?
## Output inactive

## Input What do we get for NS(=O)(=O)c1ccc(CCN=C=S)cc1 ?
## Output inactive

###

Test system: SW-620 colon
test.details: NCI tumour cell line growth inhibition, 48 h; in the data active = GI50 below about 0.43 µM; inactive = the rest
Give one outcome, nothing more. List: active, inactive

COc1cc2c3c(n(CCCNCCCNCCCn4c5c(c6ccccc6c4=O)C(=O)c4ccccc4-5)c(=O)c2cc1OC)-c1cc2c(cc1C3=O)OCO2 ... active
COc1cc(C(=O)c2cc3c(cc2C)OCO3)cc(OC)c1OC ... active
COc1cc(-c2cc(-c3nc4ccc(Cl)cc4[nH]3)[nH]n2)cc(OC)c1OC ... inactive
CCCc1nc2c(C)cc(-c3nc4ccccc4n3C)cc2n1Cc1ccc(-c2ccccc2C(=O)O)cc1 ... inactive
Cc1nc(NC(=O)CCCN2C(=O)c3cccc4cccc(c34)C2=O)sc1C(=O)Nc1cc(C(=O)NCCCN(C)C)n(C)c1 ... inactive

Now for another entry.
## Input Which outcome was entered for the molecule COc1ccc(NC(=O)c2sc3nc(C)c(C(O)c4ccccc4)cc3c2N)cc1 (stereo unspecified) in this test?
## Output inactive

###

System: CCRF-CEM leukemia
test.details: NCI tumour cell line growth inhibition, 48 h
property: TGI

Worked set:
CN(C)c1ccc(/C=C(\NC(=O)c2ccccc2)C(=O)NC(CCC(=O)O)C(=O)O)cc1 (stereo not given) ... > 100 µM
Nc1c(-c2ccc(Cl)cc2Cl)[n+]([O-])c2ccccc2[n+]1[O-] ... > 100 µM
CCOC(=O)CCC(NC(=O)Cc1ccc(Oc2nc3ccccc3nc2-c2cccs2)cc1)C(=O)OCC (stereo not given) ... > 100 µM
S=C(S)N1CCN(c2ccc(Cl)c(Cl)c2)CC1 ... > 100 µM
COc1cc(C(=O)c2cc3c(cc2C)OCO3)cc(OC)c1OC ... > 100 µM

## Input Hello, I am looking for reported TGI with CCRF-CEM leukemia for O=C(CCc1cccc(O)c1)NCCc1ccc(O)cc1 . Could you help?
## Output > 100 µM

## Input What do we get for O=S(CCCl)c1c2ccccc2nc2ccccc12 (stereo not given) ?
## Output > 100 µM

## Input What do we get for ClC1=C(Cc2ccccc2)Cc2ccc3c(c21)CCC3 ?
## Output 90.1 µM

## Input What do we get for Clc1c(Cl)c2c(Cl)c(Cl)c1C[P+](c1ccccc1)(c1ccccc1)CC[P+](c1ccccc1)(c1ccccc1)Cc1c(Cl)c(Cl)c(c(Cl)c1Cl)C[P+](c1ccccc1)(c1ccccc1)CC[P+](c1ccccc1)(c1ccccc1)C2 ?
## Output 9.63 µM

## Input What do we get for COc1cc([N+](=O)[O-])ccc1NC1=CC(=O)CCC1 ?
## Output > 100 µM

## Input What do we get for CCO[C@]12C[C@H](OC)[C@@]3(O)CC(C1[C@H]3O)C13C4C2[C@H](OC)C1[C@](COC)(CN4CC)[C@H](O)C[C@@H]3OC (stereo not given in full) ?
## Output > 100 µM

## Input What do we get for COc1ccc(NC(=O)c2sc3nc(C)c(C(O)c4ccccc4)cc3c2N)cc1 (stereo not given) ?
## Output > 100 µM

## Input What do we get for CNC(=O)CCCN(C)C(=O)CCCCC(=O)N(C)C ?
## Output > 100 µM

## Input What do we get for CCOC(=O)c1[nH]c2ccccc2c1C(=O)C[C@H](NC(=O)C(F)(F)F)C(=O)OC ?
## Output > 100 µM
